experimentalSystem: Induced myeloid leukemia cell differentiation protein Mcl-1 (Homo sapiens)
Sequence (Q07820 whole entry, the tested form may be a part): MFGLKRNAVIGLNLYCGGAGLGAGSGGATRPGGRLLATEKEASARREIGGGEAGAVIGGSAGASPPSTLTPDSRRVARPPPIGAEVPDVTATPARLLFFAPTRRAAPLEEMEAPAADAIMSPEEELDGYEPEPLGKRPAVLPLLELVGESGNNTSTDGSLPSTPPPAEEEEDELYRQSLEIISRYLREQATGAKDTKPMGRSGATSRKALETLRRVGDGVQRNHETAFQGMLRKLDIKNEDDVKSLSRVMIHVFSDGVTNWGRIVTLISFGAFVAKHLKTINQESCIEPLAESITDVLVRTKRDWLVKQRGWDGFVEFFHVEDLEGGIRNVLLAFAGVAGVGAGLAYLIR
protocolText: Inhibition of FITC-labeled Bak-BH3 peptide binding to MCL1 (172 to 371 residues) (unknown origin) by fluorescence polarization competition assay
propertyMeasured: Ki (nM)

Reference set, count: 2
Cc1cc(Oc2ccc(/C=C3\SC(=O)N([C@H](C(=O)O)C(C)C)C3=O)cc2)cc(C)c1Cl ... 1190
O=C(O)[C@H](Cc1ccccc1)N1C(=O)S/C(=C\c2cccc(Br)c2)C1=O ... 290

A = Cc1cc(Oc2ccc(/C=C3\SC(=O)N([C@H](Cc4ccccc4)C(=O)O)C3=O)cc2)cc(C)c1Cl
B = Cc1cc(Oc2ccc(/C=C3\SC(=O)N([C@@H](CC(C)C)C(=O)O)C3=O)cc2)cc(C)c1Cl
Exercise: Lowest Ki? choose A or B Kindly state the label of the option you pick.
Key: B
(B: 419 nM, A: 878 nM)
